Tested on: Wolbachia pipientis
Experiment: Anti-Wolbachia Cell-Based Screen
Format: functional
Design: scale not given: in the data most compounds retested in dose-response had high values
Settings: 5 µM
Screen size: about 48,000 compounds; about 13,000 (27%) showed an effect of 50% or more. The list shows a part of the results.
Reported values of Percent Effect for individual entries
Numbers only; they are read as %.

Compound	Unit Of Measure	Value Reported
CN(Cc1cnn(C)c1)C(=O)c1ccc(=O)n(Cc2ccccc2)n1	%	97
CCCn1nc(C(=O)N(C)Cc2cnn(C)c2)ccc1=O	%	125
CC(O)CN1CCC(CNCCOCC(F)(F)F)CC1 (configuration not stated)	%	8.822
N#Cc1c(Cl)nsc1NCc1ccc(N2CCSCC2)cc1	%	-6.213
Cc1nc(C)c(C(=O)N(C)Cc2cnn(C)c2)s1	%	-4.031
CC(O)CN1CCC(CNCc2cccc(OC(C)C)c2)CC1 (configuration not stated)	%	-7.306
NC(=O)C1CCN(C(=O)CCSCc2ccc(Cl)c(Cl)c2)CC1	%	148.4
c1cncc(-c2ccnn2CN2CCC3(CC2)OCCO3)c1	%	-11.32

Incoming: What reported Percent Effect corresponds to Cc1nn(C)c(C)c1NC(=O)CNc1cc(C(F)(F)F)ccc1F on Wolbachia pipientis?
Outgoing: -4.216

Incoming: Thanks! And CN(Cc1cnn(C)c1)C(=O)C1COCC(=O)N1Cc1ccccc1 (configuration not stated) ?
Outgoing: 16.93

Incoming: Thanks! And COc1ccc2c(c1)OCC(Cc1ccc(N)cn1)C2 (configuration not stated) ?
Outgoing: -6.73

Incoming: Thanks! And CC[C@@]1(O)CCN(C(=O)CCSCc2ccc(F)cc2)C[C@H]1O ?
Outgoing: 8.229

###

System: Wolbachia pipientis
Assay: Anti-Wolbachia Cell-Based Screen
Type: functional
Set-up: scale not given: in the data most compounds retested in dose-response had high values
Details: 5 µM
Among all 48,000 compounds or so, about 13,000 (27%) showed an effect of 50% or more. The list shows a part of the results.
Reported values of Percent Effect for individual entries
Answer format: number, then unit.

Compound	Percent Effect
Cc1n[nH]c(C)c1C1CCCN1C(=O)NCC(=O)NC(C)(C)C (configuration not stated)	-8.161%
CNC(=O)CN1CC[C@H]2CN(C(=O)c3cccc(C)c3)C[C@H]2C1.O=C(O)C(F)(F)F	104.9%
O=C(CCc1ccc(-n2cnnn2)cc1)Nc1nncs1	117.3%

Incoming: What reported Percent Effect corresponds to Cn1cnnc1C1CCCN(C(=O)c2cc(Cl)c(Cl)n2C)C1 (configuration not stated) on Wolbachia pipientis?
Outgoing: 115.1%

Incoming: Thanks! And CC(=O)N1CCCC1c1cc(N2CCN(C3CCCC3)CC2)cc(C)n1 (configuration not stated) ?
Outgoing: 1.456%

Incoming: Thanks! And CC(C)N1CCO[C@H]2CN(C(=O)c3ccoc3)C[C@H]21.O=C(O)C(F)(F)F ?
Outgoing: -10.4%

Incoming: Thanks! And O=C(Nc1cccc(N2CCN(CC3CC3)CC2)c1)N1CCCC1 ?
Outgoing: 0.3876%

Incoming: Thanks! And O=C(O)C(F)(F)F.O=C(c1ccc(F)cc1)N1C[C@@H]2CCN(c3cccnc3)C[C@@H]2C1 ?
Outgoing: 11.69%

###

Test system: Wolbachia pipientis
Assay: Anti-Wolbachia Cell-Based Screen
Assay type: functional
Design: scale not given: in the data most compounds retested in dose-response had high values
Settings: 5 µM
The campaign covered roughly 48,000 compounds. About 13,000 (27%) showed an effect of 50% or more. The list shows a part of the results.
So basically: is Percent Effect under 10%? Then criterion met. Not under? Then criterion not met.

See these solved cases before continuing.
Compound	Group
OC(COCc1ccc(Cl)cc1)CN1CCC(c2ccn[nH]2)CC1 (stereo unspecified)	criterion met
O=C(CC1CN(Cc2ccccc2)CCO1)Nc1ccccc1F (stereo unspecified)	criterion met
Cc1cc(C)n(C2CCCN(C(=O)CN(C)C3CC3)C2)n1 (stereo unspecified)	criterion met
CCSCC(C)NCc1ccccc1-n1ccnc1 (stereo unspecified)	criterion not met
Cc1n[nH]c(CCC(=O)N2CCOC(Cc3ccc(F)cc3)C2)c1C (stereo unspecified)	criterion not met
Cc1ccc(N[C@@H]2CN(Cc3cc(C)on3)C[C@@H]3CCCO[C@@H]32)nn1.O=C(O)C(F)(F)F.O=C(O)C(F)(F)F	criterion not met
O=C(N[C@@H]1CN(c2ncccn2)C[C@@H]2CCCO[C@@H]21)c1ccncc1.O=C(O)C(F)(F)F.O=C(O)C(F)(F)F	criterion met
Cc1nc(C)n(C2CCCN(C(=O)CCOc3cccc(F)c3)C2)n1 (stereo unspecified)	criterion not met
CCCc1ccc(CN2CCN(C(=O)C(C)C)[C@@H]3CS(=O)(=O)C[C@@H]32)o1	criterion met
Cc1ccc(CN2CCN(Cc3nccn3C)[C@H]3CS(=O)(=O)C[C@H]32)o1	criterion not met

Incoming: I'd appreciate it if you could check whether CN(C(=O)c1cccnc1OCC(F)F)c1ccc2c(c1)CCO2 has Percent Effect smaller than 10%.
Outgoing: criterion met

Incoming: Thanks! And CCc1n[nH]c(C2CN(Cc3csc(COC)n3)CCO2)n1 (stereo unspecified) ?
Outgoing: criterion met

###

Reported values of Percent Effect for individual entries
Tested on: Wolbachia pipientis
Test: Anti-Wolbachia Cell-Based Screen
Assay type: functional
Design: scale not given: in the data most compounds retested in dose-response had high values
Conditions: 5 µM
In all, about 48,000 compounds went through this assay and about 13,000 (27%) showed an effect of 50% or more. The list shows a part of the results.
Numbers only; they are read as %.

Some compounds with recorded Percent Effect:
Compound	Percent Effect [%]
Cn1ccnc1CN1CCc2ncnc(N3CCCC3)c2CC1.O=C(O)C(F)(F)F	15.66
NCCC1CN(c2nc(-c3ccccc3)nc3c2CCNC3)CCO1 (stereo unspecified)	-13.03
CS(=O)(=O)Cc1nc(CN2CCOc3ccccc3C2)cs1	2.526

Incoming: Which Percent Effect is reported for this compound? Cc1ccc2c(c1)OC(C)CN2C(=O)Cc1ccc(C)nc1 (stereo unspecified)
Outgoing: -1.859

Incoming: Thanks! And Cc1ccc2c(c1)OC(C)CN2C(=O)c1c[nH]c(C)cc1=O (stereo unspecified) ?
Outgoing: 100.7

Incoming: Thanks! And O=C(c1cccc(Cl)c1Cl)N1CCN(CC(O)Cn2cccn2)CC1 (stereo unspecified) ?
Outgoing: -7.394

Incoming: Thanks! And O=C(c1cn(CCN2CCCCC2)nn1)N1CCCCO1 ?
Outgoing: -10.33

Incoming: Thanks! And Cc1ccc2c(c1)N(C(=O)c1cc[nH]c(=O)c1)CC(C)O2 (stereo unspecified) ?
Outgoing: 102.6

Incoming: Thanks! And Cc1ccc2c(c1)OC(C)CN2C(=O)CCc1cscn1 (stereo unspecified) ?
Outgoing: -1.954

Incoming: Thanks! And CCCOCCN1CCc2[nH]c(-c3ccc(OC)cc3)nc2C1 ?
Outgoing: 0.5641

Incoming: Thanks! And CNC(=O)CCC(=O)N1CCOC(c2ccc3cc(OC)ccc3c2)C1 (stereo unspecified) ?
Outgoing: 9.004

###

Reported values of Percent Effect for individual entries
Test system: Wolbachia pipientis
Test: Anti-Wolbachia Cell-Based Screen
Format: functional
Parameters: scale not given: in the data most compounds retested in dose-response had high values
Conditions: 5 µM
Among all 48,000 compounds or so, about 13,000 (27%) showed an effect of 50% or more. The list shows a part of the results.
Numbers only; they are read as %.

Incoming: What reported Percent Effect corresponds to Cc1ccc(C(=O)NC2CCN(C)CC2)cc1N(C)S(C)(=O)=O on Wolbachia pipientis?
Outgoing: 12.36

Incoming: Thanks! And CC(C)N1CCN2C(=O)N(C3CCCCC3)C[C@H]2C1 ?
Outgoing: 0.5796

Incoming: Thanks! And O=C(Nc1cc(N2CCOCC2)ncn1)c1cnccn1 ?
Outgoing: -2.836

Incoming: Thanks! And Cc1ccc(OC2CCN(C(=O)Cc3c(C)[nH]c(=O)[nH]c3=O)CC2)cc1 ?
Outgoing: 33.83

Incoming: Thanks! And CCC(NC(=O)c1cc(CC(C)C)nn1C)c1ccnn1C (configuration not stated) ?
Outgoing: 9.016

Incoming: Thanks! And CCCc1nnc(N2CCC(N3CCN(CCO)CC3)CC2)o1 ?
Outgoing: -3.287

Incoming: Thanks! And Cc1ccc(C(=O)N2CCn3cc(CN(C)Cc4ccco4)nc3C2)o1.O=C(O)C(F)(F)F ?
Outgoing: -7.52

Incoming: Thanks! And Cc1ccc(=O)n(CC(=O)N(C)Cc2csc(-c3cccs3)n2)n1 ?
Outgoing: -12.57

Incoming: Thanks! And CN(Cc1cccc(-n2cccn2)c1)Cc1cccs1 ?
Outgoing: 32.49

Incoming: Thanks! And Cc1cccc(C)c1NC(=O)c1cccc(N(C)S(C)(=O)=O)c1C ?
Outgoing: 108.1

Incoming: Thanks! And COc1cccc(-n2cc(CN(C)Cc3ccnc(C(C)C)n3)cn2)c1 ?
Outgoing: 92.54

Incoming: Thanks! And COc1cc(N(C)Cc2cccc(-n3cccn3)c2)nc(N)n1 ?
Outgoing: -41.52
